kon values by entry
Target: T1, Human CD24 (human, UniProt P25063 27-59, limits assumed)
T1 chain (looked up): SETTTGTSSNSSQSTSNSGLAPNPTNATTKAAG
Test: SPR affinity ranking, 1:1 binding, analyte conc. 19.71 nM
A number alone suffices; assume M⁻¹ s⁻¹.

# count of solved cases: 4
Antibody No 12, lead clone of 4451H (HC T59Y; LC S30K) (antibody, V domains shown) VH: QVQLVQSGAEVKKPGASVKVSCKASGYDFTGYHMNWVRQAPGQGLEWMGEINPITSDKYFNQKFKSRVTMTRDTSISTAYMELSRLRSDDTAVYYCARRDYGTSLDYWGQGTTVTVSS VL: DIQLTQSPSFLSASVGDRVTITCRASKSIKKYLAWYQQKPGKAPKLLIYAGSTLHSGIPSRFRGSGSGTEFTLTISSLQPEDFATYYCQQHNEYPITFGQGTKLEIK: 1.52e+07
Antibody No 17, lead clone of 4451H (HC N35G, T59Y; LC L33G) (antibody, V domains shown) VH: QVQLVQSGAEVKKPGASVKVSCKASGYDFTGYHMGWVRQAPGQGLEWMGEINPITSDKYFNQKFKSRVTMTRDTSISTAYMELSRLRSDDTAVYYCARRDYGTSLDYWGQGTTVTVSS VL: DIQLTQSPSFLSASVGDRVTITCRASKSISKYGAWYQQKPGKAPKLLIYAGSTLHSGIPSRFRGSGSGTEFTLTISSLQPEDFATYYCQQHNEYPITFGQGTKLEIK: 1.56e+06
Antibody No 2, lead clone of 4451H (HC N35G; LC S30K, T97I) (antibody, V domains shown) VH: QVQLVQSGAEVKKPGASVKVSCKASGYDFTGYHMGWVRQAPGQGLEWMGEINPITSDKTFNQKFKSRVTMTRDTSISTAYMELSRLRSDDTAVYYCARRDYGTSLDYWGQGTTVTVSS VL: DIQLTQSPSFLSASVGDRVTITCRASKSIKKYLAWYQQKPGKAPKLLIYAGSTLHSGIPSRFRGSGSGTEFTLTISSLQPEDFATYYCQQHNEYPIIFGQGTKLEIK: 2.83e+06
Antibody No 14, lead clone of 4451H (HC T59Y; LC T97I) (antibody, V domains shown) VH: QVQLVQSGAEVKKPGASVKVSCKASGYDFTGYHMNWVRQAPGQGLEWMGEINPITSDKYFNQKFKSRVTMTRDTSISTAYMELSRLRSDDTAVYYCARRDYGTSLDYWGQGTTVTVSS VL: DIQLTQSPSFLSASVGDRVTITCRASKSISKYLAWYQQKPGKAPKLLIYAGSTLHSGIPSRFRGSGSGTEFTLTISSLQPEDFATYYCQQHNEYPIIFGQGTKLEIK: 7.28e+06

Enquiry: Returns the measured kon for the input binder. Input: Antibody No 11, lead clone of 4451H (HC T59Y; LC K27A) (antibody, V domains shown) VH: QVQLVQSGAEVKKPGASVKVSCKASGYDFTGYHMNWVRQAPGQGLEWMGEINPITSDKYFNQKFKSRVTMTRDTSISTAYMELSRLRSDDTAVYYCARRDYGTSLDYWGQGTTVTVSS VL: DIQLTQSPSFLSASVGDRVTITCRASASISKYLAWYQQKPGKAPKLLIYAGSTLHSGIPSRFRGSGSGTEFTLTISSLQPEDFATYYCQQHNEYPITFGQGTKLEIK
Return: 1.21e+06

// data source = patent US20260265403A1
